Consider the following compounds and their measured pest or weed control at 250 g/ha readings.
tested on: Lolium perenne (LOLPE); assay: Test 1B glasshouse assay for herbicidal activity, pre-emergence; assay type: in vivo; details: 480 h, 250 g/ha, 20 DAA, read-out: percentage phytotoxicity LOLPE
Entry rule: numbers only, all in %.

Check out these entries, answers already filled in.
compound	measuredNumber
CC#Cc1cc(Cl)c(C2C(=O)C3CCC(C)(C2=O)C3(C)C)c(OC)c1 (centres unmarked)	50
CC#Cc1cc(C)c(C2=C(OC(=O)OC)CC(c3ccccn3)CC2=O)c(C)c1 (centres unmarked)	100
CC#Cc1cc(Cl)c(C2C(=O)C3CCC(C3)C2=O)c(OC)c1 (centres unmarked)	100
CC#Cc1cc(Cl)c(C2C(=O)C3CCC(C3)C2=O)c(OCC)c1 (centres unmarked)	70

Consider now this further compound.
Request the reported pest or weed control at 250 g/ha associated with CC#Cc1cc(C)c(C2C(=O)CC(c3ccccn3)CC2=O)c(C)c1 (centres unmarked)
100

Origin of measurements: patent US9615577B2
